src = patent US20250281424A1

# target_or_test_system: human Ether-à-go-go-Related Gene (hERG) (Homo sapiens)
# Sequence (Q12809 whole entry): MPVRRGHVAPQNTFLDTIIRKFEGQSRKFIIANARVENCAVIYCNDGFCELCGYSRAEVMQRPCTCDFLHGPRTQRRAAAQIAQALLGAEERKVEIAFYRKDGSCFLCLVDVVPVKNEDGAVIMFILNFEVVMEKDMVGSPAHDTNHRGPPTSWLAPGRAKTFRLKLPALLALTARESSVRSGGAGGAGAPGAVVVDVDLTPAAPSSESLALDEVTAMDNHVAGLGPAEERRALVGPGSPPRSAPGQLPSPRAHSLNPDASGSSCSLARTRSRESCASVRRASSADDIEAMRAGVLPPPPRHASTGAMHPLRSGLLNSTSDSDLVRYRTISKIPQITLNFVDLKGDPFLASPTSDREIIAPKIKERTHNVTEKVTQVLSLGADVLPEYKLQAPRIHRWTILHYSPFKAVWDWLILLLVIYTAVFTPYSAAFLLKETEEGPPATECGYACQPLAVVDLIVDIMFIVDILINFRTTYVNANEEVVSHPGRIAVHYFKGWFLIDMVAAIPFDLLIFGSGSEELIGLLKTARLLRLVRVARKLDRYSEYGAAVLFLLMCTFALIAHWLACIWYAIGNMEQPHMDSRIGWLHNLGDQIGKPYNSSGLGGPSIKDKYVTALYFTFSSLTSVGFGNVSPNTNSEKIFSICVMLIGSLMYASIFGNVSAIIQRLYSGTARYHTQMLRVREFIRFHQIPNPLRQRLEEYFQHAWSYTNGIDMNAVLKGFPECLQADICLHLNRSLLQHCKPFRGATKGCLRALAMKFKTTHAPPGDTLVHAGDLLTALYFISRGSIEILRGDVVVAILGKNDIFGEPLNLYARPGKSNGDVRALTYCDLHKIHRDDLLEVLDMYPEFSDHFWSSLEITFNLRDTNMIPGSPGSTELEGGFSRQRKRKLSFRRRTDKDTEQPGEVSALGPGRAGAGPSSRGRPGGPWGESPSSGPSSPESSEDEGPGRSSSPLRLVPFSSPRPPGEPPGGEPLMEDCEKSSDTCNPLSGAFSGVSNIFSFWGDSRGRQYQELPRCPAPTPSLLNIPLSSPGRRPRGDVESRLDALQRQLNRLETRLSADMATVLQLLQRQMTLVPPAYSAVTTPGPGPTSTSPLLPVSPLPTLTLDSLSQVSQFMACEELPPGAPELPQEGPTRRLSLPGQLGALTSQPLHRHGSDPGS
# assay_procedure: hERG patch clamp assay
# Type: in vitro ADME
# experimental_setup: read-out: hERG IC50
pIC50: −log10 of the molar value.
observation_type: pIC50

Recall and state the measured pIC50 for CCOC(=O)C1C(=O)c2ccc(C(=O)c3ccc4c(c3)C(=O)C(C(=O)OCC)C4=O)cc2C1=O (stereo not shown) . < 4.52

###

# assay_procedure: Pharmacokinetics after IV bolus in CD-1 mice
# Format: in vivo
# experimental_setup: mouse, plasma; CD-1 mice, 1 mg/kg IV bolus
observation_type: AUC(0-inf) (ng·h/mL)
Give just the number in ng·h/mL; leave the unit off.

Provide only the value of recorded AUC(0-inf) for CC(=O)C1C(=O)c2ccc(C(=O)c3ccc4c(c3)C(=O)C(C(C)=O)C4=O)cc2C1=O (stereo not shown) 9350
